Where these numbers come from: patent US12371432B2

Assay: Rat PK evaluation
Type: in vivo
Details: plasma, SD rats, IV 1 mg/kg, PO 5 mg/kg, n=3, read-out: F % (absolute bioavailability)
Structures can show the parent of a compound that is named as a salt.
Classify by measured bioavailability: true if it is equal to or exceeds 90%, false if it is smaller.

                                   compound  qualitative_label
0       NC/C(=C\F)Cn1cc2c(=O)n(C3CC3)ccc2n1              false
1  Cl.NC/C(=C\F)Cn1cc2c(c1Br)CCN(C1CC1)C2=O [Compound A32 hydrochloride]               true
2       NC/C(=C\F)Cn1cc2c(n1)CCN(C1CC1)C2=O              false
3  Cl.NC/C(=C\F)Cn1cc2c(c1Cl)CCN(C1CC1)C2=O [Compound A42 hydrochloride]               true
4  CCN1CCc2nn(C/C(=C/F)CN)cc2C1=O [Compound A6 hydrochloride]              false

====

Molecular target: rhVAP-1 (Homo sapiens, UniProt Q16853)
Construct: purchased PeproTech
Sequence (Q16853 27-763 limits assumed): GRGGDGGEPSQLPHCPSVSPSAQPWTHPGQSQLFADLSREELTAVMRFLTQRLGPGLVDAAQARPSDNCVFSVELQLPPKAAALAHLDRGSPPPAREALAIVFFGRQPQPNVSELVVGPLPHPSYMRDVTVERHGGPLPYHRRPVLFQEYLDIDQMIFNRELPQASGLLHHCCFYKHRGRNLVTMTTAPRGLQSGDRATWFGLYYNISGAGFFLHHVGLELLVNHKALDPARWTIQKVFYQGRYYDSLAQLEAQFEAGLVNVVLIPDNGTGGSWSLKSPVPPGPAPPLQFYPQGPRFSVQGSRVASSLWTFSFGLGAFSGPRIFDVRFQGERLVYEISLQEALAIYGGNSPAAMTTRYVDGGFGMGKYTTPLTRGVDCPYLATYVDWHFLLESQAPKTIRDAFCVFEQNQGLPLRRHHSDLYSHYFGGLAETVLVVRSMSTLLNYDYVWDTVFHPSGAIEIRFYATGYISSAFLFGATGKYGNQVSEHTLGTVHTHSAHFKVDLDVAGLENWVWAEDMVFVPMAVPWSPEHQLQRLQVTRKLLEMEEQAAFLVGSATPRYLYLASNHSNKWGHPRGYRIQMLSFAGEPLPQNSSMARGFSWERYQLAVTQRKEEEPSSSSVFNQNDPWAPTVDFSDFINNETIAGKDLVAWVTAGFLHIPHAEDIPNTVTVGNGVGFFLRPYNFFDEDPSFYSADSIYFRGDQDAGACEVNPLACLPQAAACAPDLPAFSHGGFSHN
Assay: Inhibitory activity against rhVAP-1 enzyme (Biological Example 2)
Assay type: biochemical
Conditions: Table 2; benzylamine substrate, Amplex Red/HRP
Where a name gives a salt, the structure may show the parent alone.
# reported IC50; entries follow
recorded endpoint: IC50 (nM)

In [3]: df
Out[3]:
                                   compound                                  target  recorded_endpoint  observed_value
0  COC1(C)CCN(C(=O)c2ccc3c(ccn3C/C(=C/F)CN)c2)CC1 [Compound C15 hydrochloride]  rhVAP-1 (Homo sapiens, UniProt Q16853)               IC50              63
1  NC/C(=C\F)Cn1c(Br)c2c(c1Br)C(=O)N(C1CC1)CC2 [Compound A33 hydrochloride]  rhVAP-1 (Homo sapiens, UniProt Q16853)               IC50              23
2  NC/C(=C\F)Cn1cc2c(c1)C(=O)N(C1CC1)CC2 [Compound A22]  rhVAP-1 (Homo sapiens, UniProt Q16853)               IC50              44
3  CC(C)(C)NC(=O)c1cnn(C/C(=C/F)CN)c1 [Compound B3]  rhVAP-1 (Homo sapiens, UniProt Q16853)               IC50              89
4  Cl.NC/C(=C\F)Cn1cc2c(c1Br)CCN(C1CC1)C2=O [Compound A32 hydrochloride]  rhVAP-1 (Homo sapiens, UniProt Q16853)               IC50              15
5  CN(C)C(=O)c1cnn(C/C(=C/F)CN)c1 [Compound B29]  rhVAP-1 (Homo sapiens, UniProt Q16853)               IC50              70
6  NC/C(=C\F)Cn1cc2c(n1)CCN(CC1CC1)C2=O [Compound A48 hydrochloride]  rhVAP-1 (Homo sapiens, UniProt Q16853)               IC50              12
7  CN1CCc2nn(C/C(=C/F)CN)cc2C1=O [Compound A24 hydrochloride]  rhVAP-1 (Homo sapiens, UniProt Q16853)               IC50              54
8  CNC(=O)c1cnn(C/C(=C/F)CN)c1 [Compound B1]  rhVAP-1 (Homo sapiens, UniProt Q16853)               IC50              40
